target-or-system: HLA-A*01:01
method-summary: IEDB peptide-MHC binding, purified MHC/competitive/radioactivity; filed as Kd, often an IC50 or EC50 that approximates it; bounds were set here for any values at or beyond the usual limits of such assays
details: source organism: Dengue virus 3 Martinique/1243/1999
test-readout: pKd
The scale used: pKd is minus the common logarithm of the concentration in molar units.

Quickly give me recorded pKd for ASDRMGMGV
5.86

---

target-or-system: HLA-B*45:06
method-summary: IEDB peptide-MHC binding, purified MHC/competitive/fluorescence; filed as Kd, often an IC50 or EC50 that approximates it; bounds were set here for any values at or beyond the usual limits of such assays
details: source organism: Yersinia pestis Nepal516
test-readout: Kd

Quickly give me recorded Kd for MMMSTAVAF
≥ 5 µM

---

target-or-system: HLA-A*24:03
method-summary: IEDB peptide-MHC binding, purified MHC/direct/fluorescence; filed as Kd, often an IC50 or EC50 that approximates it; bounds were set here for any values at or beyond the usual limits of such assays
details: source organism: Rio Mamore hantavirus
test-readout: Kd

Quickly give me recorded Kd for YRRKLTNPA
≥ 20 µM

---

target-or-system: HLA-A*33:01
method-summary: IEDB peptide-MHC binding, purified MHC/competitive/radioactivity; filed as Kd, often an IC50 or EC50 that approximates it; bounds were set here for any values at or beyond the usual limits of such assays
details: source organism: Mammarenavirus choriomeningitidis
test-readout: Kd

Quickly give me recorded Kd for LVSFLLLAGR
0.151 µM

---

target-or-system: HLA-A*03:01
method-summary: IEDB peptide-MHC binding, purified MHC/direct/fluorescence; filed as Kd, often an IC50 or EC50 that approximates it; bounds were set here for any values at or beyond the usual limits of such assays
details: source organism: Pseudomonas aeruginosa UCBPP-PA14
pKd: −log10 of the molar value.
test-readout: pKd

Quickly give me recorded pKd for GLGGDASAY
≤ 4.70

---

target-or-system: HLA-B*15:42
method-summary: IEDB peptide-MHC binding, purified MHC/competitive/fluorescence; filed as Kd, often an IC50 or EC50 that approximates it; bounds were set here for any values at or beyond the usual limits of such assays
details: source organism: Burkholderia mallei SAVP1
test-readout: Kd
Note: a bare number is incomplete; add the unit.

Quickly give me recorded Kd for RQYERYTAL
733 nM

---

target-or-system: HLA-A*11:01
method-summary: IEDB peptide-MHC binding, purified MHC/competitive/radioactivity; filed as Kd, often an IC50 or EC50 that approximates it; bounds were set here for any values at or beyond the usual limits of such assays
details: source organism: Vaccinia virus Copenhagen
test-readout: pKd
The scale used: pKd is minus the common logarithm of the concentration in molar units.

Worked set:
>  <sequence-entry>
KSVLDIISSK

>  <pKd>
8.05

$$$$
>  <sequence-entry>
STSPTRTWK

>  <pKd>
9.10

$$$$

In the following, a different sequence is considered.
Quickly give me recorded pKd for KLKHRDGFTK
6.88

---

target-or-system: HLA-A*01:01
method-summary: IEDB peptide-MHC binding, purified MHC/competitive/radioactivity; filed as Kd, often an IC50 or EC50 that approximates it; bounds were set here for any values at or beyond the usual limits of such assays
details: source organism: Dengue virus 4 Philippines/H241/1956
# Kd listing for each entry below
Answer in µM, number only, no unit symbol.

Worked set:
>  <sequence-entry>
LTEIASLPTY

>  <Kd / µM>
0.00139

$$$$
>  <sequence-entry>
STDGPERVIL

>  <Kd / µM>
18.7

$$$$

In the following, a different sequence is considered.
Quickly give me recorded Kd for SLDRKEFEEY
1.05

---

target-or-system: HLA-A*26:01
method-summary: IEDB peptide-MHC binding, purified MHC/direct/fluorescence; filed as Kd, often an IC50 or EC50 that approximates it; bounds were set here for any values at or beyond the usual limits of such assays
details: source organism: Corynebacterium glutamicum
pKd: −log10 of the molar value.
test-readout: pKd

Quickly give me recorded pKd for FLPGQYMNI
≤ 4.70

---

target-or-system: HLA-A*01:01
method-summary: IEDB peptide-MHC binding, purified MHC/competitive/fluorescence; filed as Kd, often an IC50 or EC50 that approximates it; bounds were set here for any values at or beyond the usual limits of such assays
details: source organism: Human immunodeficiency virus 1
test-readout: Kd (nM)
Answer in nM, number only, no unit symbol.

Quickly give me recorded Kd for WMSNGTWNY
8.9

---

target-or-system: HLA-A*02:01
method-summary: IEDB peptide-MHC binding, purified MHC/direct/fluorescence; filed as Kd, often an IC50 or EC50 that approximates it; bounds were set here for any values at or beyond the usual limits of such assays
details: source organism: Salmonella enterica subsp. enterica serovar Typhimurium
test-readout: Kd
Note: a bare number is incomplete; add the unit.

Quickly give me recorded Kd for ELLSHVGQA
3.59 µM

---

target-or-system: HLA-A*23:01
method-summary: IEDB peptide-MHC binding, purified MHC/competitive/radioactivity; filed as Kd, often an IC50 or EC50 that approximates it; bounds were set here for any values at or beyond the usual limits of such assays
details: source organism: SARS coronavirus Tor2
# Kd listing for each entry below
Answer in µM, number only, no unit symbol.

Worked set:
>  <sequence-entry>
VFQSATKII

>  <meas-value>
0.000162

$$$$
>  <sequence-entry>
FYFTNDVSFL

>  <meas-value>
0.0592

$$$$
>  <sequence-entry>
LWLLWPVTL

>  <meas-value>
0.00742

$$$$
>  <sequence-entry>
MYIFFASFYY

>  <meas-value>
0.722

$$$$
>  <sequence-entry>
KSAQCFKMFY

>  <meas-value>
5.09

$$$$
>  <sequence-entry>
RYNTRGNTY

>  <meas-value>
8.93

$$$$

Quickly give me recorded Kd for RYNLPTMCDI
0.18

---

target-or-system: HLA-A*31:01
method-summary: IEDB peptide-MHC binding, purified MHC/direct/fluorescence; filed as Kd, often an IC50 or EC50 that approximates it; bounds were set here for any values at or beyond the usual limits of such assays
details: source organism: Marburg virus - Musoke, Kenya, 1980
pKd: −log10 of the molar value.
test-readout: pKd

Quickly give me recorded pKd for SEINNLNLT
≤ 4.70

---

target-or-system: HLA-A*26:01
method-summary: IEDB peptide-MHC binding, purified MHC/direct/fluorescence; filed as Kd, often an IC50 or EC50 that approximates it; bounds were set here for any values at or beyond the usual limits of such assays
details: source organism: Escherichia coli
test-readout: Kd

Quickly give me recorded Kd for TVANNPDDK
≥ 20 µM

---

target-or-system: HLA-B*83:01
method-summary: IEDB peptide-MHC binding, purified MHC/competitive/fluorescence; filed as Kd, often an IC50 or EC50 that approximates it; bounds were set here for any values at or beyond the usual limits of such assays
details: source organism: Orthohantavirus sinnombreense
pKd: −log10 of the molar value.
test-readout: pKd

Quickly give me recorded pKd for YTFTSLFSL
≤ 5.30

---

target-or-system: HLA-A*02:50
method-summary: IEDB peptide-MHC binding, purified MHC/competitive/fluorescence; filed as Kd, often an IC50 or EC50 that approximates it; bounds were set here for any values at or beyond the usual limits of such assays
details: source organism: Serratia marcescens
test-readout: pKd
The scale used: pKd is minus the common logarithm of the concentration in molar units.

Quickly give me recorded pKd for LIPDGDGEV
8.77

---

target-or-system: HLA-B*51:01
method-summary: IEDB peptide-MHC binding, purified MHC/competitive/fluorescence; filed as Kd, often an IC50 or EC50 that approximates it; bounds were set here for any values at or beyond the usual limits of such assays
details: source organism: Homo sapiens
# Kd listing for each entry below

>  <sequence-entry>
VTENKKIQY

>  <test-readout>
Kd

>  <meas-value>
≥ 20 µM

$$$$

Quickly give me recorded Kd for FQWHEAMFL
≥ 20 µM

---

target-or-system: HLA-B*18:01
method-summary: IEDB peptide-MHC binding, purified MHC/competitive/fluorescence; filed as Kd, often an IC50 or EC50 that approximates it; bounds were set here for any values at or beyond the usual limits of such assays
details: source organism: Orthohantavirus sinnombreense
pKd: −log10 of the molar value.
test-readout: pKd

Quickly give me recorded pKd for YTFTSLFSL
≤ 4.70

---

target-or-system: HLA-B*44:02
method-summary: IEDB peptide-MHC binding, purified MHC/direct/fluorescence; filed as Kd, often an IC50 or EC50 that approximates it; bounds were set here for any values at or beyond the usual limits of such assays
details: source organism: Marburg virus - Musoke, Kenya, 1980
test-readout: Kd

Quickly give me recorded Kd for SEINNLNLT
≥ 20 µM

---

target-or-system: HLA-B*15:01
method-summary: IEDB peptide-MHC binding, purified MHC/competitive/fluorescence; filed as Kd, often an IC50 or EC50 that approximates it; bounds were set here for any values at or beyond the usual limits of such assays
details: source organism: Shigella flexneri 2a str. 301
test-readout: pKd
The scale used: pKd is minus the common logarithm of the concentration in molar units.

Print HLA-B*15:01 pKd for KPVGWAMSF .
5.40
